- System: LXRa:RXRa (NR concentration 270 nM, RXRa partner concentration 90 nM)
- PROTOCOL SUMMARY: PBM binding z-score (relative to random genomic background probes); higher = stronger binding; sequences stand for … in GC…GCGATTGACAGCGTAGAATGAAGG
Exercise: for every item that follows, state its recorded PBM binding z-score.
Write the value as a bare number.

Please indicate recorded PBM binding z-score of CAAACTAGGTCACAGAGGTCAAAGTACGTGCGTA measured with LXRa:RXRa (NR concentration 270 nM, RXRa partner concentration 90 nM).
6.76

# return PBM binding z-score for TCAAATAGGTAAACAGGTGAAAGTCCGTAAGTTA , test system: LXRa:RXRa (NR concentration 270 nM, RXRa partner concentration 90 nM)
0.935

Check LXRa:RXRa (NR concentration 270 nM, RXRa partner concentration 90 nM) data and give PBM binding z-score for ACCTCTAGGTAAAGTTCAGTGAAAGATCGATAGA .
1.23

Consider the sequence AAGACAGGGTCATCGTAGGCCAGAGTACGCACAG tested on LXRa:RXRa (NR concentration 270 nM, RXRa partner concentration 90 nM); state its PBM binding z-score.
5.76

Please look at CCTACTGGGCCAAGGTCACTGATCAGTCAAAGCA and tell me its recorded PBM binding z-score on LXRa:RXRa (NR concentration 270 nM, RXRa partner concentration 90 nM).
2.64

Look up LXRa:RXRa (NR concentration 270 nM, RXRa partner concentration 90 nM) data: PBM binding z-score of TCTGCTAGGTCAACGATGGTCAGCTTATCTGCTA , then report it.
2.98

The origin of these recorded values is the supplement of paper PMC6555819.
